- conditionContext: basic group
In this section, each of the compounds is paired with its reported pKa.
valueType: pKa

* CCOc1ccnc([O-])n1 | 10.7
* CC1=Nc2ccc(C)cc2N=C(C)C1 | 4
* NCCCCC(=O)[O-] | 10.8
* Cc1cc(C(F)(F)F)n[nH]1 | -0.5
* OC(CN1CCCC1)CN1CCCC1 | 9.73
* C1CCC2CNCCC2C1 (stereo unspecified) | 10.9
* CC(C)(C)N1C2CCCC21 (stereo unspecified) | 9.22
* Nc1c(C(=O)[O-])ncn1[C@H]1O[C@@H](CO)[C@H](O)[C@@H]1O | 5.9
* CN(C)CCN(C)CC[NH+](C)C | 8.63
* Cc1nnc2c(c1C)CCC2 | 5.36
* CCC(N)(CC)CC | 10.9
* C/N=C(\C)SC | 7.71
* COC(=O)C([NH3+])Cc1c[nH]cn1 (stereo unspecified) | 5.41
* CCN(CC)c1ncnc2[nH]ncc12 | 4.71
* COc1ncnc2ccccc12 | 3.13
* [O-]c1ncc2[nH]cnc2n1 | 8.43

====

- conditionContext: basic group
valueType: pKa

* Nc1ccc2ncncc2c1 | 3.29
* OC(CN1CCCC1)C[NH+]1CCCC1 | 7.75
* O=C([O-])C(NCC[NH2+]C(C(=O)[O-])c1ccccc1O)c1ccccc1O (centres undefined) | 6.32
* COc1cccc(C(=O)NC2CC3CCC(C2)N3Cc2ccccc2)c1OC (centres undefined) | 8.91
* CCN(CC)Cc1cccc(C)c1O | 8.19
* Cc1cccc(C)c1NN=C(C#N)C#N | -0.82
* Nc1nc([O-])c2ncn([C@H]3O[C@@H](CO)[C@H](O)[C@@H]3O)c2n1 | 9.41
* CC([NH3+])C/C(N)=N/O (centres undefined) | 3.75
* CN(C)c1ccc(SC#N)cc1 | 3.3
* C=C[C@]1(O)C[C@@H](C)N[C@H]2CCCC[C@@H]21 | 9.51
* [NH3+]c1ccc(-c2ncc(-c3ccc(Cl)cc3)o2)cc1 | -0.1
* CN1CCCCC1 | 10.1
* CC(CN(C)C)N(C)C (centres undefined) | 9.49
* Cn1cnc(=O)c(-c2ccccc2)c1 | 1.99

====

- conditionContext: acidic group
In this section, each of the compounds is paired with its reported pKa.
valueType: pKa

- Sc1nnco1: 3.85
- CN(C)c1ncc2[nH]cnc2n1: 10.2
- [O-]c1ccc(O)cc1Br: 10.7
- CC(C)c1ccc(Br)c(O)c(=O)c1: 6.28
- CC(C)c1nnn[nH]1: 5.55
- Oc1cc[n+](O)cc1: 2.4
- Cn1nc(/N=N/O)nc1Cl: 5.17
- CC(=O)[n+]1cccc(C)c1: 5.81
- C/C(=N/O)c1cc(C)c(C)cc1O: 8.2
- Cc1ccc(C(=O)O)cc1[N+](=O)[O-]: 3.62
- S=C1NCCO1: 11.1
- CC(=O)C(C=O)C(C)=O: 4.6
- C[C@@H](C(=O)c1ccc(O)cc1)[NH+](C)Cc1ccccc1: 7.5
- O=C1CCCC2CCCC(=O)C12 (stereo unspecified): 11.1
- O=[N+]([O-])c1cccc2c[n+](CCO)ccc12: 11.7
- C[n+]1cccc(O)c1: 4.96
